tested on: IGROV1 ovarian; test: NCI tumour cell line growth inhibition, 48 h
molecules and their reported TGI

* N#CCCN(c1ccc(C=Nc2ccccc2)cc1)S(=O)(=O)c1ccccc1 | > 100 µM

Turning now to a further molecule:
Entry CCCCCCCCCCCCOC1C(CNC(=O)C2OC3OC(C)(C)OC3C2NC(=O)Nc2ccc(CC(=O)OC)cc2)OC2OC(C)(C)OC21 (centres undefined) , TGI reported as > 100 µM

###

Readings of TGI for the listed compounds
tested on: MOLT-4 leukemia; test: NCI tumour cell line growth inhibition, 48 h

• CCSCC1CC(O)(c2ccccc2)CC(c2ccc(F)cc2)O1 (stereo unspecified) = 4.14 µM
• CCc1n[nH]c(=O)n1/N=C/c1ccccc1O = > 100 µM
• OC(c1ccc(F)cc1)C(F)(F)c1nc2ccccc2o1 (stereo unspecified) = > 100 µM
• Cn1cc(C(=O)c2ccccc2)c2ccccc2c1=O = > 100 µM
• O=c1ccc2nc3cc(Br)ccc3sc-2c1 = > 100 µM

Memo: COc1ccc(C(=O)C2=NON3OC23C(=O)c2ccc(OC)cc2)cc1 (stereo unspecified) , reported TGI: > 21.9 µM

Values from PubChem BioAssay (NCI)
